# test system: Peroxisome proliferator-activated receptor gamma (Homo sapiens) (UniProt P37231)
# Sequence (P37231 whole entry, looked up): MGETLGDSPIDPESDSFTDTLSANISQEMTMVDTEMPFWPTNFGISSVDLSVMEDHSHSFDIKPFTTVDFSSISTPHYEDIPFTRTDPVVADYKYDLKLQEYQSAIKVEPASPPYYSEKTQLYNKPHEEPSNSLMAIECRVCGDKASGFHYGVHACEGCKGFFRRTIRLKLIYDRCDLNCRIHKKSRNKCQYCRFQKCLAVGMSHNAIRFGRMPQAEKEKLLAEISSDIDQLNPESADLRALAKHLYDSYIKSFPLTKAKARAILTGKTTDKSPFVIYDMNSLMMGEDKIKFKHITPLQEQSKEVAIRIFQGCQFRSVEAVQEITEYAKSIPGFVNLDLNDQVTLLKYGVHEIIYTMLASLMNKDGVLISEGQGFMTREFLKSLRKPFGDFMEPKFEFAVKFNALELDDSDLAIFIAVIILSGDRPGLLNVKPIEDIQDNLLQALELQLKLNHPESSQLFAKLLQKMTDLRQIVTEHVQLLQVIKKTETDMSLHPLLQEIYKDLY
# assay info: ATG_PPARg_TRANS: Attagene TRANS-FACTORIAL HepG2 Assay for human Peroxisome Proliferator-activated Receptor-gamma (PPARg) (AID 2283007)
Records with an inconclusive call do not appear. Calls of active or inactive are those of the source. Rule for the calls: active = hit-call score of the fitted dose curve at least 0.9, where 1 is the maximum; inconclusive = response in the unintended direction; inactive = score below 0.9.
Pick from active, inactive when you respond.

Check out these entries, answers already filled in.
c1ccc(CCCc2ccncc2)cc1 active
CCCCCCCCCCc1ccccc1 inactive

Consider the record given below.
Query: Test call, this compound: `NC(=O)N=NC(N)=O`
Result: inactive

---

# test system: Retinoic acid receptor RXR-alpha (Homo sapiens)
# assay info: ATG_RXRa_TRANS: Attagene TRANS-FACTORIAL HepG2 Assay for human Retinoid X Receptor alpha (RXRa) (AID 2283012)
Results filed as inconclusive are left out. The source made the active and inactive calls. Rule for the calls: active = hit-call score of the fitted dose curve at least 0.9, where 1 is the maximum; inconclusive = response in the unintended direction; inactive = score below 0.9.
// one of active, inactive, no free text

molecule	class
CCCCCCCCCCCSCC(=O)O	inactive
Cc1cc(=O)n(-c2ccccc2)n1C	inactive
O=C1CC2CC1C1CCCC21 (stereo unspecified)	inactive

Would you kindly look at the next entry?
Query: Give the logged outcome of this assay for the following molecule: `COC(=O)c1cc(Cl)ccc1[N+](=O)[O-]`
Result: inactive

Numbers sourced from PubChem BioAssay (EPA / NIEHS).
